The measurements presented in this section are drawn from patent US9617256B2.

Test system: AABA1060 (clinical isolate of Acinetobacter baumannii)
Assay: MIC broth microdilution, AABA1060
Assay type: cell-based
Conditions: Acinetobacter baumannii, read-out: MIC AABA1060

>  <COMPOUND>
CC(C)(O)[C@H](NC(=O)c1ccc(C#C/C=C/C2CC2)cc1)C(=O)NO [Example 107-1]

>  <MIC>
2 to 16 µg/mL

$$$$
>  <COMPOUND>
C[C@@H](N)[C@H](NC(=O)c1ccc(C#CC#Cc2cccs2)cc1)C(=O)NO [Example 88-12]

>  <MIC>
< 2 µg/mL

$$$$
>  <COMPOUND>
C[C@@H](O)[C@H](NC(=O)c1ccc(/C=C/C#Cc2ccccc2F)cc1)C(=O)NO [Example 114-12]

>  <MIC>
< 2 µg/mL

$$$$
>  <COMPOUND>
CC(C)(N)[C@H](NC(=O)c1ccc(C#CC#Cc2ccsc2)cc1)C(=O)NO [Example 88-15]

>  <MIC>
< 2 µg/mL

$$$$
>  <COMPOUND>
C[C@@H](N)[C@H](NC(=O)c1ccc(C#CC#Cc2ccccc2)cc1)C(=O)NO [Example 82-4]

>  <MIC>
2 to 16 µg/mL

$$$$
>  <COMPOUND>
O=C(N[C@H](C(=O)NO)C1CCCC1)c1ccc(C#Cc2ccc(CN3CCOCC3)cc2)cc1 [Example 66-6]

>  <MIC>
16 to 64 µg/mL

$$$$
>  <COMPOUND>
CC(C)(N)[C@H](NC(=O)c1ccc(C#C/C=C/c2ccc(CNC3CC3)cc2)cc1)C(=O)NO [Example 102-6]

>  <MIC>
2 to 16 µg/mL

$$$$
>  <COMPOUND>
O=C(N[C@H](C(=O)NO)C1CCNCC1)c1ccc(C#Cc2ccc(CN3CCOCC3)cc2)cc1 [Example 65-6]

>  <MIC>
16 to 64 µg/mL

$$$$
>  <COMPOUND>
CC(C)(C)CNCc1ccc(C#Cc2ccc(C(=O)N[C@H](C(=O)NO)C(C)(C)N)cc2)cc1 [Example 122-2]

>  <MIC>
2 to 16 µg/mL

$$$$
>  <COMPOUND>
C[C@@H](N)[C@H](NC(=O)c1ccc(/C=C/C#Cc2ccc(C(F)(F)F)cc2)cc1)C(=O)NO [Example 114-6]

>  <MIC>
2 to 16 µg/mL

$$$$
>  <COMPOUND>
C[C@@H](O)[C@H](NC(=O)c1ccc(C#CC#Cc2cccc(F)c2)cc1)C(=O)NO [Example 82-18]

>  <MIC>
16 to 64 µg/mL

$$$$
>  <COMPOUND>
O=C(N[C@H](C(=O)NO)c1cccs1)c1ccc(C#Cc2ccc(CN3CCOCC3)cc2)cc1 [Example 67-7]

>  <MIC>
2 to 16 µg/mL

$$$$
>  <COMPOUND>
C[C@@H](NC(=O)CNC1CC1)[C@H](NC(=O)c1ccc(C#Cc2ccccc2)cc1)C(=O)NO [Example 132-2]

>  <MIC>
16 to 64 µg/mL

$$$$
>  <COMPOUND>
CC(C)(N)[C@H](NC(=O)c1ccc(C#Cc2ccc(CNCC(F)F)cc2)cc1)C(=O)NO [Example 122-3]

>  <MIC>
< 2 µg/mL

$$$$
>  <COMPOUND>
C[C@@H](N)[C@H](NC(=O)c1ccc(C#C/C=C/c2ccc(CO)cc2)cc1)C(=O)NO [Example 101-3]

>  <MIC>
2 to 16 µg/mL

$$$$
>  <COMPOUND>
CC(C)(O)[C@H](NC(=O)c1ccc(C#Cc2ccncc2)cc1)C(=O)NO [Example 133-15]

>  <MIC>
2 to 16 µg/mL

$$$$
